- tested.system: human CSNK1A1 (Homo sapiens (Human))
- experiment.description: CSNK1A1 Assay 2 (ADP-Glo, 1 μM ATP)
- Assay type: biochemical
- measurement.setup: substrate biotin-Ahx-KRRRAL-pS-VASLPGL, read-out: CSNK1A1 Assay 2 IC50 [mol/l] (median)
measured.parameter: pIC50
Scale: negative log10 of molar concentration, which is what pIC50 denotes.

Value lookup for pIC50; key = CN1CCc2[nH]c(-c3ccnc(NC(=O)Cc4ccc(N(C)C)cc4)c3)c(Nc3ccccc3)c2C1=O [Example 84]
8.58

Quick one: O=C1NC2(CCC2)Cc2[nH]c(-c3ccnc(NC(=O)C(CC(F)F)c4ccc(F)cc4)c3)c(Nc3ccccc3)c21 (single isomer, unassigned; (+)) [Example 55]
8.37

Another molecule to look at: CC1Cc2[nH]c(-c3ccnc(NC(=O)C(CC(F)F)c4ccc(F)cc4)c3)c(Nc3ccccc3F)c2C(=O)N1C (single isomer, unassigned; (-)) [Example 104]
7.17

###

- tested.system: UniProtKB P48730
pIC50: −log10 of the molar value.
Assign class by pIC50: not lower than 8 means T; lower than 8 means F.

Determine whether this molecule has pIC50 no lower than 8: CC(C(=O)Nc1cc(-c2[nH]c3c(c2Nc2ccccc2)C(=O)N(C)C2(CCC2)C3)ccn1)c1ccc(F)cc1 (single isomer, unassigned; enantiomer 1) [Example 158]
F

// next record CN1C(=O)c2c([nH]c(-c3ccnc(NC(=O)C(CC(F)F)c4ccc(F)cc4)c3)c2Nc2ccccc2)CC12CCC2 (single isomer, unassigned; enantiomer 2) [Example 162]
F

And Cc1cc(CC(=O)Nc2cc(-c3[nH]c4c(c3Nc3ccccc3)C(=O)N(C)CC4)ccn2)ccn1 ?
T

Same lookup for CN1CCc2[nH]c(-c3ccnc(NC(=O)C(CC(F)F)c4ccccc4)c3)c(Nc3ccccc3)c2C1=O (stereo not shown) , please.
F

###

- tested.system: human CSNK1A1 (Homo sapiens (Human), UniProt P48729)
- Sequence (P48729 whole entry): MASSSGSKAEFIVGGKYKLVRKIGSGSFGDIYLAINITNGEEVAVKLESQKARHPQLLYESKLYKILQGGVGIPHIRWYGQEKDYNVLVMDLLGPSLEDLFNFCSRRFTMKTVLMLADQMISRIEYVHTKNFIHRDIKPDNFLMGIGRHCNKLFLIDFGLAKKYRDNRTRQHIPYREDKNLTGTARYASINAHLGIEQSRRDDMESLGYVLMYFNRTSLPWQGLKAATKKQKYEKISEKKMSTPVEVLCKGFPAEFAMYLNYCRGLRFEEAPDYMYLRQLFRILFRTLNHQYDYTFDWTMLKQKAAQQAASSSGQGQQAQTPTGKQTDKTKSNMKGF
- experiment.description: CSNK1A1 Assay 2 (ADP-Glo, 1 μM ATP)
- Format: biochemical
- measurement.setup: substrate biotin-Ahx-KRRRAL-pS-VASLPGL, read-out: CSNK1A1 Assay 2 IC50 [mol/l] (median)
measured.parameter: IC50 (nM)
Hi! Could you send only the number? It should be in nM, unit omitted.

# get_value(readout='IC50', item= CCC(C(=O)Nc1cc(-c2[nH]c3c(c2Nc2ccccc2)C(=O)N(C)CC3)ccn1)c1ccc(F)cc1 (single isomer, unassigned; (-)) [Example 76] )
14.4

Try this compound next: O=C1NC2(CCC2)Cc2[nH]c(-c3ccnc(NC(=O)C(CC(F)F)c4ccc(F)cc4)c3)c(Nc3cccc(F)c3Cl)c21 (racemic) [Example 123]
13.5

Same question, CC1(C)Cc2[nH]c(-c3ccnc(NC(=O)C(CC(F)F)c4ccc(F)cc4)c3)c(Nc3cccc(F)n3)c2C(=O)N1 (single isomer, unassigned; enantiomer 2) [Example 130] this time
26.7

Then what about the compound COCCNC(=O)c1ccc(CC(=O)Nc2cc(-c3[nH]c4c(c3Nc3ccccc3)C(=O)N(C)CC4)ccn2)cc1 ?
2.45

For CC(C(=O)Nc1cc(-c2[nH]c3c(c2Nc2ccccc2)C(=O)NCC3)ccn1)c1ccc(F)cc1 (single isomer, unassigned) [Example 11] then?
30.4

Also CC1(C)Cc2[nH]c(-c3ccnc(NC(=O)Cc4ccc(F)cc4)c3)c(Nc3ccccc3F)c2C(=O)N1 ?
4.44

###

The reader will find pIC50 measurements below, all made with human CSNK1D (Homo sapiens (Human)).
Sequence (P48730 whole entry): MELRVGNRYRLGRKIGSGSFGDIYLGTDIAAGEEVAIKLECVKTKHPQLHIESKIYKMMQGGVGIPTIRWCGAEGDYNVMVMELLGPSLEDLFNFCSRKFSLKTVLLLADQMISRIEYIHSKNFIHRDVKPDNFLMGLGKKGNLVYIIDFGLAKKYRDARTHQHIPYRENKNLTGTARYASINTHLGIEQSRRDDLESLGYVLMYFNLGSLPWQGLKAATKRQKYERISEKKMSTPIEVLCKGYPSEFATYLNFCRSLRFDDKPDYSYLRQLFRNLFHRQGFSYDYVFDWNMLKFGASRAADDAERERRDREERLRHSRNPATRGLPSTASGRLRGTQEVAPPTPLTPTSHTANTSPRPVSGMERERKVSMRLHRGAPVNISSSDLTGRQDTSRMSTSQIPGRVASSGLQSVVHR
Bear in mind: pIC50 is minus log10 of a mol/L concentration; give just that figure.

# returns recorded pIC50 (system: human CSNK1D (Homo sapiens (Human))) for CC1(C)Cc2[nH]c(-c3ccnc(NC(=O)C(CC(F)F)c4ccc(F)cc4)c3)c(Nc3cccc(F)c3Cl)c2C(=O)N1 (single isomer, unassigned; (-)) [Example 110]
6.60

Repeat for the following molecule: CC1Cc2[nH]c(-c3ccnc(NC(=O)Cc4ccc(F)cc4)c3)c(Nc3ccccc3F)c2C(=O)N1C (single isomer, unassigned; (-)) [Example 102]
8.14

Another molecule to look at: Cc1ccccc1Nc1c(-c2ccnc(NC(=O)C(C)c3ccc(F)cc3)c2)[nH]c2c1C(=O)NC(C)(C)C2 (single isomer, unassigned; enantiomer 1) [Example 133]
6.55

Moving on to CC(C(=O)Nc1cc(-c2[nH]c3c(c2Nc2ccccc2)C(=O)N(C)CC3)ccn1)c1ccncc1 (single isomer, unassigned; (+)) [Example 73]
8.35

Continue with CN1C(=O)c2c([nH]c(-c3ccnc(NC(=O)C(CC(F)F)c4ccc(F)cc4)c3)c2Nc2ccccc2F)CC1(C)C (single isomer, unassigned) [Example 47]
6.82

Next molecule up: CC1(C)Cc2[nH]c(-c3ccnc(NC(=O)Cc4cccnc4)c3)c(Nc3ccccc3)c2C(=O)N1 [Example 52]
8.17

What would you report for CC1Cc2[nH]c(-c3ccnc(NC(=O)Cc4ccncc4)c3)c(Nc3ccccc3)c2C(=O)N1C (racemic) [Example 97] ?
8.24

And for CN1CCc2[nH]c(-c3ccnc(NC(=O)C(CC(F)F)c4ccc(F)cc4)c3)c(Nc3ccccc3)c2C1=O (single isomer, unassigned; (-)) [Example 62] ?
7.53

Here is the next molecule: CN1C(=O)c2c([nH]c(-c3ccnc(NC(=O)C(CC(F)F)c4ccc(F)cc4)c3)c2Nc2ccccc2F)CC1(C)C (single isomer, unassigned) [Example 46]
8.08

Please give the result for CN1CCc2[nH]c(-c3ccnc(NC(=O)Cc4ccc(F)c(F)c4)c3)c(Nc3ccccc3)c2C1=O [Example 83] too.
8.14

Cool, now CC1(C)Cc2[nH]c(-c3ccnc(NC(=O)C(CC(F)F)c4ccc(F)cc4)c3)c(Nc3ccccc3)c2C(=O)N1 (racemic) [Example 48]
7.87

Please do the same for CN1CCc2[nH]c(-c3ccnc(NC(=O)Cc4ccc(C(F)F)cc4)c3)c(Nc3ccccc3)c2C1=O [Example 78] as well.
8.10

What about CN1CCc2[nH]c(-c3ccnc(NC(=O)Cc4ccc(F)cc4)c3)c(Nc3cc(F)ccc3F)c2C1=O [Example 150] ?
7.58

Likewise for CC(C(=O)Nc1cc(-c2[nH]c3c(c2Nc2ccccc2F)C(=O)N(C)CC3)ccn1)c1ccc(F)cc1 (single isomer, unassigned; (-)) [Example 41] ?
7.51

Would you kindly repeat that for CN1CCc2[nH]c(-c3ccnc(NC(=O)C(CO)c4ccc(F)cc4)c3)c(Nc3ccccc3)c2C1=O (single isomer, unassigned) [Example 19] ?
8.18

How about CN(C)CCCC(C(=O)Nc1cc(-c2[nH]c3c(c2Nc2ccccc2)C(=O)N(C)CC3)ccn1)c1ccccc1 (racemic) [Example 58] ?
7.39

Entry O=C(Cc1ccc(F)cc1)Nc1cc(-c2[nH]c3c(c2Nc2ccccc2)C(=O)NC(C(F)(F)F)C3)ccn1 (racemic) [Example 43] please
8.15

Quick one: CC1(C)Cc2[nH]c(-c3ccnc(NC(=O)C(CN)c4ccc(F)cc4)c3)c(Nc3ccccc3)c2C(=O)N1 (racemic) [Example 139]
8.11

Can you check COCCN1CCc2[nH]c(-c3ccnc(NC(=O)Cc4ccc(F)cc4)c3)c(Nc3ccccc3)c2C1=O [Example 53] next?
7.82

For CC1Cc2[nH]c(-c3ccnc(NC(=O)Cc4ccc(F)cc4)c3)c(Nc3ccccc3)c2C(=O)N1C (single isomer, unassigned; (-)) [Example 90] then?
8.42

One more molecule: CN1CCc2[nH]c(-c3ccnc(NC(=O)Cc4ccc(F)cc4)c3)c(Nc3ccccn3)c2C1=O [Example 12]
7.99

What do you get for Cc1ccccc1Nc1c(-c2ccnc(NC(=O)C(C)c3ccc(F)cc3)c2)[nH]c2c1C(=O)NC(C)(C)C2 (single isomer, unassigned; enantiomer 2) [Example 134] ?
7.34

# iterate: CC(C(=O)Nc1cc(-c2[nH]c3c(c2Nc2ccccc2Cl)C(=O)NCC3)ccn1)c1ccc(F)cc1 (single isomer, unassigned) [Example 16]
8.10

How about this molecule: CCN1CCc2[nH]c(-c3ccnc(NC(=O)Cc4ccc(F)cc4)c3)c(Nc3ccccc3)c2C1=O [Example 28]
7.15

Ok, now CN1C(=O)c2c([nH]c(-c3ccnc(NC(=O)C(CC(F)F)c4ccc(F)cc4)c3)c2Nc2ccccc2)CC12CCC2 (racemic) [Example 160]
7.80

###

- tested.system: human CSNK1A1 (Homo sapiens (Human), UniProt P48729)
- experiment.description: CSNK1A1 Assay 1 (ADP-Glo, 1 μM ATP)
- Type: biochemical
- measurement.setup: substrate Btn-Ahx-[…], read-out: CSNK1A1 Assay 1 IC50 [mol/l] (median)
measured.parameter: pIC50
To interpret pIC50, take it as minus log10 of a concentration measured in moles per litre.

Quick one: pIC50 of C[C@H](C(=O)Nc1cc(-c2[nH]c3c(c2Nc2ccccc2)C(=O)N(C)CC3)ccn1)c1ccc(F)cc1 (single isomer, unassigned) ?
8.44

Then this compound: C[C@@H](C(=O)Nc1cc(-c2[nH]c3c(c2Nc2ccccc2)C(=O)N(C)CC3)ccn1)c1ccc(F)cc1 (single isomer, unassigned)
7.48
